B1: Far upstream element-binding protein 1, residues 98 to 169; numbered along this chain, Q96AE4 (parent)
chain: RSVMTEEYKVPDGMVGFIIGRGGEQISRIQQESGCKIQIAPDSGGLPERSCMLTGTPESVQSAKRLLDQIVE

variants of: B1; assay: abundance fitness (aPCA) (normalised: wild type 0, dead -1); higher = more abundant; growth selection in yeast, the domain comes from the species named; settings: Homo sapiens
Assignment: determine reported abundance fitness for the given variants.
Numbers only.

Worked cases, answers included:
SEQUENCE_CHAIN: RSVMTEEYKVPDGMVGFIIGRGGEQISRIQQESGCKIQIAPDSGGLPERSCMLTGTPESVQSAKRSLDQIVE
abundance fitness: -0.029
//
SEQUENCE_CHAIN: RSVMTEEYKVPDGMVGFIIGRGGEQISRIQQESGCKIQIAPDSGGLHERSCMLTGTPESVQSAKRLLDQIVE
abundance fitness: -0.052
//
SEQUENCE_CHAIN: RSFMTEEYKVPDGMVGFIIGRGGEQISRIQQESGCKIQIAPDSGGLPERSCMLTGTPESVQSAKRLLDQIVE
abundance fitness: -0.073

Please state, for each entry, its recorded abundance fitness.
1. RSVMTEEYKVPDGMVGFIIGRGGEQISRIQQESGCKIQIAPDSGGLPERSCMLTGTPESVQSAKRLSDQIVE
2. RSVMTEEYKVPDGMVGFIIGRGGEQISRIQQESGTKIQIAPDSGGLPERSCMLTGTPESVQSAKRLLDQIVE
3. RSVMTEEYKVPDGMVGFIIGRGGEQISRIQQESGCKIQIAIDSGGLPERSCMLTGTPESVQSAKRLLDQIVE
4. RSVMTEEYKVPDGMVGFIIGRGGEQISRIQQESGCKIQQAPDSGGLPERSCMLTGTPESVQSAKRLLDQIVE
5. RSVMTEEYKVPDGMVGFIIGRGGEQISRIQQESGCKIQIAPDSGGLPERSCMLTGTPESVQSAKRLLDNIVE

Reply |
1. -0.648
2. -0.172
3. -0.176
4. -0.35
5. -0.02
